The measured values listed here are drawn from patent US10221163B2.

# Target System: VIM-1 (Pseudomonas aeruginosa (strain ATCC 15692 / DSM 22644 / CIP 104116 / JCM 14847 / LMG 12228 / 1C / PRS 101 / PAO1))
# Test Summary: biochemical
# Test Settings: fluorescence assay, CCF2-FA substrate, 30 pM enzyme, 2 hours at 25° C.; read-out: VIM-1 IC50
// NB: equality with 0.2 nM counts as False; only IC50 strictly below is True

Decide: IC50 of NCCCNS(=O)(=O)c1ccc(-c2cc(F)cc3[nH]c(N)nc23)c(-c2nn[nH]n2)c1S(N)(=O)=O strictly below 0.2 nM?
True

Dear colleague, could you confirm whether IC50 of Nc1nc2c(-c3ccc(S(=O)(=O)NCCO)c(S(N)(=O)=O)c3-c3nn[nH]n3)cccc2s1 falls below 0.2 nM? Thanks.
True

Identify whether the compound NCCNC(=O)c1cc(Cl)cc(-c2ccc(S(=O)(=O)N[C@@H]3CCNC3)c(S(N)(=O)=O)c2-c2nn[nH]n2)c1N records IC50 below 0.2 nM.
False

Quick check: does Nc1nc2c(-c3ccc(S(=O)(=O)NCC4(N)CC4)c(S(N)(=O)=O)c3-c3nn[nH]n3)cccc2s1 have IC50 under 0.2 nM?
False

Problem: For the compound CN1CCN(S(=O)(=O)c2ccc(-c3cccc4sc(N)nc34)c(-c3nnn[nH]3)c2S(N)(=O)=O)CC1 , is IC50 under 0.2 nM?
False

Continuing:
Dear reviewer, please state whether Nc1nc2c(-c3ccc(S(=O)(=O)N4CC(N)C4)c(S(N)(=O)=O)c3-c3nn[nH]n3)cccc2s1 has IC50 strictly beneath 0.2 nM.
False

Lab note: IC50 threshold 0.2 nM. Does this compound come in strictly under it? CC[C@@H](CN)NS(=O)(=O)c1ccc(-c2cccc3[nH]c(N)nc23)c(-c2nn[nH]n2)c1S(N)(=O)=O
False

API: query returns whether the compound falls strictly under 0.2 nM in IC50. Query: Nc1nc2c(-c3ccc(S(=O)(=O)NCCN4CCNC(=O)C4)c(S(N)(=O)=O)c3-c3nnn[nH]3)cccc2s1
False

Please indicate whether the reported IC50 of NCC(F)(F)CNS(=O)(=O)c1ccc(-c2cccc3sc(N)nc23)c(-c2nnn[nH]2)c1S(N)(=O)=O is strictly below 0.2 nM.
False

Below 0.2 nM on IC50? Entry Nc1nc2c(-c3ccc(S(=O)(=O)N4CC[S+]([O-])CC4)c(S(N)(=O)=O)c3-c3nnn[nH]3)cccc2s1
False

# check: IC50 < 0.2 nM for C[N+](C)(C)CCNS(=O)(=O)c1ccc(-c2cccc3sc(N)nc23)c(-c2nnn[nH]2)c1S(N)(=O)=O.O=C([O-])C(F)(F)F [Example 391, trifluoroacetate]
True

Is 0.2 nM strictly greater than the compound's reported IC50? compound: NCCNS(=O)(=O)c1ccc(-c2cccc(C(=O)N[C@@H]3CNC[C@H]3O)c2)c(-c2nn[nH]n2)c1S(N)(=O)=O
False

Answer whether the compound NCCNS(=O)(=O)c1ccc(-c2cccc(-c3n[nH]c(N)n3)c2)c(-c2nn[nH]n2)c1S(N)(=O)=O has IC50 strictly less than 0.2 nM
True

API: query returns whether the compound falls strictly under 0.2 nM in IC50. Query: C[C@H](CN)NS(=O)(=O)c1ccc(-c2cccc3[nH]nnc23)c(-c2nn[nH]n2)c1S(N)(=O)=O
True

hey, is IC50 for NC[C@@H](N)CNS(=O)(=O)c1ccc(-c2cnc(N)s2)c(-c2nn[nH]n2)c1S(N)(=O)=O lower than 0.2 nM or not?
False

Please let me know if NCc1nc2cc(-c3ccc(S(=O)(=O)NC[C@@H](O)CN)c(S(N)(=O)=O)c3-c3nn[nH]n3)ccc2[nH]1 shows IC50 below 0.2 nM.
True

Report whether reported IC50 is lower than 0.2 nM (strictly) for NS(=O)(=O)c1c(S(=O)(=O)NC[C@H]2CNCCN2)ccc(-c2cccc3[nH]cnc23)c1-c1nn[nH]n1
True

is_below(IC50, 0.2 nM) for CNc1ccc(-c2ccc(S(=O)(=O)N[C@@H]3CCNC3)c(S(N)(=O)=O)c2-c2nn[nH]n2)cn1 ?
True

Quick check: does CN(C)S(=O)(=O)c1ccc(-c2cccc3sc(N)nc23)c(-c2nn[nH]n2)c1S(N)(=O)=O have IC50 under 0.2 nM?
False

Problem: For the compound Cc1cc(-c2ccc(S(=O)(=O)NC[C@@H](O)CN)c(S(N)(=O)=O)c2-c2nn[nH]n2)cnc1N , is IC50 under 0.2 nM?
True

Check if IC50 falls below 0.2 nM for NCCNS(=O)(=O)c1ccc(-c2cccc(-c3c[nH]c(N)n3)c2)c(-c2nn[nH]n2)c1S(N)(=O)=O .
False

Just wondering, is IC50 of C[C@H](CN)NS(=O)(=O)c1ccc(-c2cncc(N)c2)c(-c2nn[nH]n2)c1S(N)(=O)=O below 0.2 nM?
True
